B1: Hairpin Ribozyme (parent)
chain: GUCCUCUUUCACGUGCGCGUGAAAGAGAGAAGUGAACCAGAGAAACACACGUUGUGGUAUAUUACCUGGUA

Variants of: B1
Experiment: self-cleavage, relative activity (ratio to wild type); higher = more cleavage; co-transcriptional
Please go through the items and note down their self-cleavage.
Please respond with just the number, no unit label.

Exam item: If you can, please state the reported self-cleavage value of A28C C66G .
Marked response: 0.197

Exam item: If you can, please state the reported self-cleavage value of G19C A41C .
Marked response: 1.24

Exam item: If you can, please state the reported self-cleavage value of G42C G51U .
Marked response: 0.448

Exam item: If you can, please state the reported self-cleavage value of C37G C48G .
Marked response: 0.0962

Exam item: If you can, please state the reported self-cleavage value of G25C U70C .
Marked response: 0.401

Exam item: If you can, please state the reported self-cleavage value of U67G G68A .
Marked response: 0.138

Exam item: If you can, please state the reported self-cleavage value of G32C G69A .
Marked response: 0.149

Exam item: If you can, please state the reported self-cleavage value of A28U G69U .
Marked response: 0.0991

Exam item: If you can, please state the reported self-cleavage value of C16U A41G .
Marked response: 0.809

Exam item: If you can, please state the reported self-cleavage value of A36C C37A .
Marked response: 0.185

Exam item: If you can, please state the reported self-cleavage value of U5G G57U .
Marked response: 0.163

Exam item: If you can, please state the reported self-cleavage value of A22C C38G .
Marked response: 0.215

Exam item: If you can, please state the reported self-cleavage value of C4G U5A .
Marked response: 0.203

Exam item: If you can, please state the reported self-cleavage value of U5G C18G .
Marked response: 0.577

Exam item: If you can, please state the reported self-cleavage value of U53A U70G .
Marked response: 0.987

Exam item: If you can, please state the reported self-cleavage value of C4G A61G .
Marked response: 0.098

Exam item: If you can, please state the reported self-cleavage value of C66A G69C .
Marked response: 0.239

Exam item: If you can, please state the reported self-cleavage value of C48G U58C .
Marked response: 0.143

Exam item: If you can, please state the reported self-cleavage value of U7A A23C .
Marked response: 0.894

Exam item: If you can, please state the reported self-cleavage value of U5G C48U .
Marked response: 0.196

Exam item: If you can, please state the reported self-cleavage value of A22G U70G .
Marked response: 0.658

Exam item: If you can, please state the reported self-cleavage value of C10A U14A .
Marked response: 0.661

Exam item: If you can, please state the reported self-cleavage value of G1C A43C .
Marked response: 0.0543

Exam item: If you can, please state the reported self-cleavage value of U20G G34A .
Marked response: 1.19

Exam item: If you can, please state the reported self-cleavage value of A59C U60A .
Marked response: 0.223

Exam item: If you can, please state the reported self-cleavage value of C18A A49U .
Marked response: 0.264

Exam item: If you can, please state the reported self-cleavage value of G1U A43G .
Marked response: 0.0972

Exam item: If you can, please state the reported self-cleavage value of U5G A31U .
Marked response: 0.0772

Exam item: If you can, please state the reported self-cleavage value of G15A A31G .
Marked response: 0.586

Exam item: If you can, please state the reported self-cleavage value of U5C C18A .
Marked response: 0.699

Exam item: If you can, please state the reported self-cleavage value of A35G U52G .
Marked response: 0.97

Exam item: If you can, please state the reported self-cleavage value of C48G A49U .
Marked response: 0.104

Exam item: If you can, please state the reported self-cleavage value of A35C .
Marked response: 1.02

Exam item: If you can, please state the reported self-cleavage value of U14C C50A .
Marked response: 0.0893

Exam item: If you can, please state the reported self-cleavage value of A28U G57C .
Marked response: 0.113

Exam item: If you can, please state the reported self-cleavage value of G42A U53G .
Marked response: 0.237

Exam item: If you can, please state the reported self-cleavage value of C18G C38G .
Marked response: 0.125

Exam item: If you can, please state the reported self-cleavage value of C37G A45U .
Marked response: 0.188

Exam item: If you can, please state the reported self-cleavage value of G13U A49G .
Marked response: 0.483

Exam item: If you can, please state the reported self-cleavage value of A23G A61U .
Marked response: 0.138

Exam item: If you can, please state the reported self-cleavage value of A44C A64C .
Marked response: 0.0397

Exam item: If you can, please state the reported self-cleavage value of G13C U62A .
Marked response: 0.143

Exam item: If you can, please state the reported self-cleavage value of A47G G69C .
Marked response: 0.112

Exam item: If you can, please state the reported self-cleavage value of U63G A71U .
Marked response: 0.117

Exam item: If you can, please state the reported self-cleavage value of U33G U62A .
Marked response: 0.126

Exam item: If you can, please state the reported self-cleavage value of C4U U5A .
Marked response: 0.0527

Exam item: If you can, please state the reported self-cleavage value of G15C G57C .
Marked response: 0.137

Exam item: If you can, please state the reported self-cleavage value of G1U G25C .
Marked response: 0.0754

Exam item: If you can, please state the reported self-cleavage value of G15U G17C .
Marked response: 0.881

Exam item: If you can, please state the reported self-cleavage value of G13C G34C .
Marked response: 1.1

Exam item: If you can, please state the reported self-cleavage value of U8C G13C .
Marked response: 0.834

Exam item: If you can, please state the reported self-cleavage value of A44C G56C .
Marked response: 0.0706

Exam item: If you can, please state the reported self-cleavage value of C37G G68A .
Marked response: 0.14

Exam item: If you can, please state the reported self-cleavage value of C46G U52A .
Marked response: 0.189

Exam item: If you can, please state the reported self-cleavage value of U53C G56U .
Marked response: 0.196

Exam item: If you can, please state the reported self-cleavage value of U52A A59C .
Marked response: 0.245

Exam item: If you can, please state the reported self-cleavage value of A24G A43C .
Marked response: 0.19

Exam item: If you can, please state the reported self-cleavage value of A47C A71C .
Marked response: 0.72

Exam item: If you can, please state the reported self-cleavage value of G27U G40U .
Marked response: 0.0783

Exam item: If you can, please state the reported self-cleavage value of C6U G17U .
Marked response: 0.859

Exam item: If you can, please state the reported self-cleavage value of C6G A61U .
Marked response: 0.183

Exam item: If you can, please state the reported self-cleavage value of C18U C48A .
Marked response: 0.134

Exam item: If you can, please state the reported self-cleavage value of A11C C16G .
Marked response: 0.578

Exam item: If you can, please state the reported self-cleavage value of A22U A30C .
Marked response: 0.223

Exam item: If you can, please state the reported self-cleavage value of G15C A26C .
Marked response: 0.834

Exam item: If you can, please state the reported self-cleavage value of U5G A35C .
Marked response: 0.254

Exam item: If you can, please state the reported self-cleavage value of U2C G54C .
Marked response: 0.127

Exam item: If you can, please state the reported self-cleavage value of C50U U58A .
Marked response: 0.194
